B1: GFP-Sgo1 (472-530) [S. cerevisiae] / Ycg1 (6–932, Δ499–555)-Brn1 (384–529) [S. cerevisiae] (parent complex)
chain 1: KNEKKLTSNNSPKKSSPLLDITNKSENKKKSTRTKKLFKNAIVNNLSDENSTTRPSKSS
chain 2: GIDINTKIFNSVAEVFQKAQGSYAGHRKHIAVLKKIQSKAVEQGYEDAFNFWFDKLVTKILPLKKNEIIGDRIVKLVAAFIASLERELILAKKQNYKLTNDEEGIFSRFVDQFIRHVLRGVESPDKNVRFRVLQLLAVIMDNIGEIDESLFNLLILSLNKRIYDREPTVRIQAVFCLTKFQDEEQTEHLTELSDNEENFEATRTLVASIQNDPSAEVRRAAMLNLINDNNTRPYILERARDVNIVNRRLVYSRILKSMGRKCFDDIEPHIFDQLIEWGLEDRELSVRNACKRLIAHDWLNALDGDLIELLEKLDVSRSSVCVKAIEALFQSRPDILSKIKFPESIWKDFTVEIAFLFRAIYLYCLDNNITEMLEENFPEASKLSEHLNHYILLRYHHNDISNDSQSHFDYNTLEFIIEQLSIAAERYDYSDEVGRRSMLTVVRNMLALTTLSEPLIKIGIRVMKSLSINEKDFVTMAIEIINDIRDDDIEKQESESDIINNLPPEKEASSATIVLCLTRSSYMLELVNTPLTENILIASLMDTLITPAVRNTAPNIRELGVKNLGLCCLLDVKLAIDNMYILGMCVSKGNASLKYIALQVIVDIFSVHGNTVVDGEGKVDSISLHKIFYKVLKNNGLPECQVIAAEGLCKLFLADVFTDDDLFETLVLSYFSPINSSNEALVQAFAFCIPVYCFSHPAHQQRMSRTAADILLRLCVLWDDLQSSVIPEVDREAMLKPNIIFQQLLFWTDPRNLVNQTGSTKKDTVQLTFLIDVLKIYAQIEKKEIKKMIITNINAIFLSSEQDYSTLKELLEYSDDIAENDNLDNVSKNALDKLRNNLNSLIEEINERSETQTKDENNTANDQYSSILGN
chain 3: SIFEKDLMAYFDENLNRNWRGREHWKVRNFKKANLVNKESDLLEETRTTIGDTTDKNTTDDKSMDTKKKHKQKKVLEIDFFKTDDSFEDKVFASKGRTKIDMPIKNRKNDTHYLLPDDFHFSTDRITRLFIKPGQKMSLFSHRKHT

- Variants of: B1
- assay_protocol: co-immunoprecipitation (anti-GFP-coupled beads), silver-stained SDS-PAGE band quantification; 25 mM HEPES pH 7.5, 500 mM NaCl, 10% glycerol, 1 mM DTT, 0.1% NP-40; 2.5 h incubation; parent: 1; read off a plot
Entries and their ratio to parent

Example entries begin here.
| mutation_descriptor | ratio to parent |
| --- | --- |
| chain 1 L37E, chain 1 F38E | ~0.37 |
| chain 1 L37E, chain 1 F38E, chain 1 I42E, chain 1 V43E, chain 1 L46E | ~0.84 |
| chain 1 L37E, chain 1 F38E, chain 1 I42E, chain 1 V43E | ~0.54 |
| chain 1 L46E | ~0.66 |

GET /values?readout=ratio to parent&item= chain 1 I42E, chain 1 V43E
~0.51
